MEASURED_TARGET: Nav 1.7 (Homo sapiens)
Construct: expressed in transfected cells
ASSAY_COMMENT: Whole-cell voltage clamp electrophysiology, automated patch clamp (marker c in Table of Examples)
Assay type: cell-based
CONDITIONS_USED: marker c = Automated patch clamp data; read-out: Nav 1.7 activity
# label = bin(measured IC50), where bins are bottom end (below 400 nM), midrange (400 nM to below 2000 nM), top end (2000 nM or more)

# MOLECULE, MEASURED_TARGET, CLASS_LABEL
measured = [
    ("CN(c1ccccc1)c1nc(N)nc(-c2noc(N3CCC(Oc4ccccn4)CC3)n2)n1 [Example 354]", "Nav 1.7 (Homo sapiens)", "midrange"),
    ("CN(c1ccccc1)c1nc(N)nc(-c2noc(N3CC4C(COc5ccccc5)C4C3)n2)n1 (stereo not shown) [Example 391]", "Nav 1.7 (Homo sapiens)", "midrange"),
    ("CN(c1ccccc1)c1nc(N)nc(-c2noc(-c3ccc(OCCC(F)(F)F)nc3)n2)n1 [Example 359]", "Nav 1.7 (Homo sapiens)", "bottom end"),
    ("CN(c1ccccc1)c1nc(N)nc(-c2noc(N3CCC(=CCC(F)(F)F)CC3)n2)n1 [Example 324]", "Nav 1.7 (Homo sapiens)", "top end"),
    ("Nc1nc(Nc2ccccc2)nc(-c2noc(NC3CCCCC3)n2)n1 [Example 242]", "Nav 1.7 (Homo sapiens)", "top end"),
    ("CN(c1ccccc1)c1nc(N)nc(-c2noc(-c3ccc([S+]([O-])CCC(F)(F)F)nc3)n2)n1 (stereo not shown) [Example 455]", "Nav 1.7 (Homo sapiens)", "bottom end"),
    ("CN(c1ccccc1)c1nc(N)nc(-c2noc(-c3ccc(C[S+]([O-])CC(F)(F)F)nc3)n2)n1 (stereo not shown) [Example 317]", "Nav 1.7 (Homo sapiens)", "top end"),
    ("Nc1nc(Nc2ccccc2)nc(-c2noc(C(=O)N3CCCC3)n2)n1 [Example 220]", "Nav 1.7 (Homo sapiens)", "midrange"),
    ("CC(C)OC1CN(c2nc(-c3nc(N)nc(N(C)c4ccccc4)n3)no2)C1 [Example 492]", "Nav 1.7 (Homo sapiens)", "top end"),
    ("Nc1nc(Nc2cccc(F)c2)nc(-c2noc(-c3ncccc3F)n2)n1 [Example 240]", "Nav 1.7 (Homo sapiens)", "bottom end"),
    ("CN(c1ccccc1)c1nc(N)nc(-c2noc(-c3ccc(OC4CCCCC4)nc3)n2)n1 [Example 356]", "Nav 1.7 (Homo sapiens)", "bottom end"),
    ("CC(c1ccc(-c2nc(-c3nc(N)nc(N(C)c4ccccc4)n3)no2)nc1)N1CCCC1 (stereo not shown) [Example 294]", "Nav 1.7 (Homo sapiens)", "top end"),
    ("CN(c1ccccc1)c1nc(N)nc(-c2noc(N3C[C@@H]4[C@@H](COCC(F)(F)F)[C@@H]4C3)n2)n1 [Example 387]", "Nav 1.7 (Homo sapiens)", "midrange"),
    ("COC1(c2ccccc2)CCN(c2nc(-c3nc(N)nc(N(C)c4ccccc4)n3)no2)CC1 [Example 360]", "Nav 1.7 (Homo sapiens)", "top end"),
    ("Nc1nc(Nc2ccccc2)nc(-c2noc(C3CCN(S(=O)(=O)C4CC4)CC3)n2)n1 [Example 513]", "Nav 1.7 (Homo sapiens)", "midrange"),
]

====

MEASURED_TARGET: Nav1.5 (Homo sapiens)
Construct: expressed in transfected cells
Sequence (Q14524 whole entry): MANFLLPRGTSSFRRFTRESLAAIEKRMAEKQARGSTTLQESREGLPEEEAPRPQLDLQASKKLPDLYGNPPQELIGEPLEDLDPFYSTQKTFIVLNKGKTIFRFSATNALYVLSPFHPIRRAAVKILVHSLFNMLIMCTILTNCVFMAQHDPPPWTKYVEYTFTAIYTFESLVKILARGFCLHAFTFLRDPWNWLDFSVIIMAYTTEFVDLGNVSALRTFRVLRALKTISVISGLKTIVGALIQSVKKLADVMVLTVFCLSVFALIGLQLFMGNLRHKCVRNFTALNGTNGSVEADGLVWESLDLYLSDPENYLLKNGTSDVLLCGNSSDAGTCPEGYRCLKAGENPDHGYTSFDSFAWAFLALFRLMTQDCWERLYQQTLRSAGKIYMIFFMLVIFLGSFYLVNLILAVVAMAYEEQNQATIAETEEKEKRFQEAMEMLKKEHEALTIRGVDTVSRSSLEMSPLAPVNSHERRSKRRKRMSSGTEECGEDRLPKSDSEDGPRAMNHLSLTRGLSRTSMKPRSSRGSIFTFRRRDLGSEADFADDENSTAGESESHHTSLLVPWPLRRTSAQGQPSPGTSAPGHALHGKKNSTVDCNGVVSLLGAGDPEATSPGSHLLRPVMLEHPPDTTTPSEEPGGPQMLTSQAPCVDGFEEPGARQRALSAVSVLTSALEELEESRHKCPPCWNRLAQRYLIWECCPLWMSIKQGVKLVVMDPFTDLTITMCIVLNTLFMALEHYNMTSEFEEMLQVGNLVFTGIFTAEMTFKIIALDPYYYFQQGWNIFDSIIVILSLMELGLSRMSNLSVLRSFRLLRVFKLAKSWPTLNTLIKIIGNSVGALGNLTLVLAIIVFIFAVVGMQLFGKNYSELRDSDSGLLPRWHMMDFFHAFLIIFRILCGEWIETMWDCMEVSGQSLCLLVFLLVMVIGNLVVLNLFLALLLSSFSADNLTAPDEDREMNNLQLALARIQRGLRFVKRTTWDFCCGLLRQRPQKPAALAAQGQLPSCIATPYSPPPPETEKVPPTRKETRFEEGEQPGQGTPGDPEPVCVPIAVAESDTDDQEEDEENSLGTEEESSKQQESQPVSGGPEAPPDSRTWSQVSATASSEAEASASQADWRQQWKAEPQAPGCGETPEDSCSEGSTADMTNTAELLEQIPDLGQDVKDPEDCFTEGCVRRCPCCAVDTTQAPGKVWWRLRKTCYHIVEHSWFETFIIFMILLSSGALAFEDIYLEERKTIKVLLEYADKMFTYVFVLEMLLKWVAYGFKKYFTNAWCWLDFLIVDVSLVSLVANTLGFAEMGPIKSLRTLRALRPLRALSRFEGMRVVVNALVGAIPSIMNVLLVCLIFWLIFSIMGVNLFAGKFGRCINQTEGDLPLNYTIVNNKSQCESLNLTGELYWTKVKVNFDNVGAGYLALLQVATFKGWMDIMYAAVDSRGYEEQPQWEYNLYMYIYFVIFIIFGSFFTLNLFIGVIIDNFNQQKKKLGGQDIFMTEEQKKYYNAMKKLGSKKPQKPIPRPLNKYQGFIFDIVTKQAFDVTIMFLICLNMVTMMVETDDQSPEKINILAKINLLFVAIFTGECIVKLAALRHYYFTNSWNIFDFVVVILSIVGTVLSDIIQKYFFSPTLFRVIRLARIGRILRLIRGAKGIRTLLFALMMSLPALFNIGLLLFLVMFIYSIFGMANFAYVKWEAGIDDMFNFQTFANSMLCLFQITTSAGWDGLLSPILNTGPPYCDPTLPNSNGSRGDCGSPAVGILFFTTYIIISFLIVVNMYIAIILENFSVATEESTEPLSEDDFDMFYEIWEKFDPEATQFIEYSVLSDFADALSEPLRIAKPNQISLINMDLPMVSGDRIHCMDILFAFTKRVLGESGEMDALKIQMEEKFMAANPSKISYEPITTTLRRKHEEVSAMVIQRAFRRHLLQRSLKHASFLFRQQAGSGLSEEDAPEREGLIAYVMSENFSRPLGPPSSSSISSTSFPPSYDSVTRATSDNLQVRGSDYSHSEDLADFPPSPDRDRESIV
ASSAY_COMMENT: Inhibition of Nav1.5 as measured using manual patch clamp
Format: cell-based
Simple rule here: IC50 less than 800 nM is met, otherwise not met.

# MOLECULE, MEASURED_TARGET, CLASS_LABEL
records = [
    ("Nc1nc(-c2noc(-c3ccco3)n2)nc(N(CC(F)(F)F)c2ccccc2)n1 [Example 68]", "Nav1.5 (Homo sapiens)", "not met"),
    ("CN(c1ccccc1)c1nc(N)nc(-c2noc(-c3ccco3)n2)n1 [Example 1]", "Nav1.5 (Homo sapiens)", "not met"),
    ("CN(c1cccc(Cl)c1)c1nc(N)nc(-c2noc(-c3ccco3)n2)n1 [Example 7]", "Nav1.5 (Homo sapiens)", "not met"),
    ("CN(c1nc(N)nc(-c2noc(-c3ccco3)n2)n1)c1cc(Cl)ccc1F [Example 103]", "Nav1.5 (Homo sapiens)", "met"),
    ("CN(c1cccc(F)c1)c1nc(N)nc(-c2noc(-c3ccccc3Cl)n2)n1 [Example 86]", "Nav1.5 (Homo sapiens)", "met"),
    ("COc1ccccc1-c1nc(-c2nc(N)nc(N(C)c3cccc(Cl)c3)n2)no1 [Example 100]", "Nav1.5 (Homo sapiens)", "met"),
    ("CN(c1ccccc1)c1nc(N)nc(-c2noc(-c3nccs3)n2)n1 [Example 125]", "Nav1.5 (Homo sapiens)", "not met"),
    ("COc1ccc(-c2nc(-c3nc(N)nc(N(C)c4ccccc4)n3)no2)nc1 [Example 118]", "Nav1.5 (Homo sapiens)", "not met"),
    ("COc1cccnc1-c1nc(-c2nc(N)nc(N(C)c3ccccc3)n2)no1 [Example 132]", "Nav1.5 (Homo sapiens)", "not met"),
]

====

MEASURED_TARGET: Nav 1.7 (Homo sapiens, UniProt Q15858)
Construct: expressed in transfected cells
Sequence (Q15858 whole entry): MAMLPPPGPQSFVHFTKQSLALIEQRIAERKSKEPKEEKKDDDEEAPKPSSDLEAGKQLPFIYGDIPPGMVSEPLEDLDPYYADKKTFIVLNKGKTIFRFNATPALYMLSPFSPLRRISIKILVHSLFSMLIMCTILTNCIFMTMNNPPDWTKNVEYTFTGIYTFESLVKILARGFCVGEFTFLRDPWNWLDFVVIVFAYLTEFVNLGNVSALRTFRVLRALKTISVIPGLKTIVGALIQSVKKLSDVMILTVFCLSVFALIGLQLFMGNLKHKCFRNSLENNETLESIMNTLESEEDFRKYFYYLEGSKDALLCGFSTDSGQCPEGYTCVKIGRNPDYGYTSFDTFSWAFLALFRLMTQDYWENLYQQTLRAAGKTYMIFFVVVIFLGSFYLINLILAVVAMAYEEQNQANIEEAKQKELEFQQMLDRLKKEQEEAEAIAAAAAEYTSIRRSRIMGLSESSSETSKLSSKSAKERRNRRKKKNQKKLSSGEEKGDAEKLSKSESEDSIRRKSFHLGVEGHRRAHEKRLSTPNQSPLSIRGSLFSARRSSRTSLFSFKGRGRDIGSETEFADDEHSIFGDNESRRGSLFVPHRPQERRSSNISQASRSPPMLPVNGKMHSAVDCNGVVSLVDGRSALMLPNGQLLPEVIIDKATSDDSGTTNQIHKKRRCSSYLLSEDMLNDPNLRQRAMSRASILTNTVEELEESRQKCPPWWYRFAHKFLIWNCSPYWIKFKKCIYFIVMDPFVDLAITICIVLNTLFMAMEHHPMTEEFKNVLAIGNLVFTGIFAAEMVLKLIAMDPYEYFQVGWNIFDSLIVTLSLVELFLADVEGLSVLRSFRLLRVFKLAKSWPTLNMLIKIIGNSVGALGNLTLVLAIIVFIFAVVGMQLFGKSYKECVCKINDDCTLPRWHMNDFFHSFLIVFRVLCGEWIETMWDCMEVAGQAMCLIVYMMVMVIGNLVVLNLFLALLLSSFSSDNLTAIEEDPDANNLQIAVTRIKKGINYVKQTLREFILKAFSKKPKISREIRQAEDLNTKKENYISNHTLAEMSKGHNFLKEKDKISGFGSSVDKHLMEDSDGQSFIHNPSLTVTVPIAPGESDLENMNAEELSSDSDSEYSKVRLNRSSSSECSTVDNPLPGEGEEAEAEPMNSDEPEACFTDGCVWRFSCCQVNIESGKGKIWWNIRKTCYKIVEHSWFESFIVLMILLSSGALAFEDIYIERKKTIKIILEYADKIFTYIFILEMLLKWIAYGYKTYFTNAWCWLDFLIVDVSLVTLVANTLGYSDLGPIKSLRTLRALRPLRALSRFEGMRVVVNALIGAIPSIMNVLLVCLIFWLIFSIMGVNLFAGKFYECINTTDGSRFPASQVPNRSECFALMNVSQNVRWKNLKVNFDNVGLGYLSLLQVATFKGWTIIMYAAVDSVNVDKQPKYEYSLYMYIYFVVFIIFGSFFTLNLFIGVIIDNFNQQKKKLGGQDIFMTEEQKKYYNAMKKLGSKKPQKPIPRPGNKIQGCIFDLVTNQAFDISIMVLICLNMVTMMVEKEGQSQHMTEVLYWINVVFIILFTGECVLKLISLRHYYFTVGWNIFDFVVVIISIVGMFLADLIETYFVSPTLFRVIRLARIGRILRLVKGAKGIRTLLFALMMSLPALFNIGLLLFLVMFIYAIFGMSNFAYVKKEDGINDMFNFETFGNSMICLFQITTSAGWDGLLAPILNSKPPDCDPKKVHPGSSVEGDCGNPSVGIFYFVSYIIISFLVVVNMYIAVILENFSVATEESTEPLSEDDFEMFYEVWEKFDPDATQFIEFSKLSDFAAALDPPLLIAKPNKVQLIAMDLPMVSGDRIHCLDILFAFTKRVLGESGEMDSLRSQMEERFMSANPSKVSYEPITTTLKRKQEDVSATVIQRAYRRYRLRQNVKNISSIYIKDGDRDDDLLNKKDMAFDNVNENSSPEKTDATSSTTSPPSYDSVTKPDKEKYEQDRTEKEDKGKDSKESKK
ASSAY_COMMENT: Whole-cell voltage clamp electrophysiology, automated patch clamp (marker c in Table of Examples)
Type: cell-based
CONDITIONS_USED: marker c: Automated patch clamp data; read-out: Nav 1.7 activity
pIC50: −log10 of the molar value.
Respond with met for pIC50 values of 6 and above, not met for values below.

# COMPOUND, CLASS_LABEL
measured = [
    ("COc1cccc(F)c1-c1nc(-c2nc(N)nc(N(C)c3cccc(C)c3)n2)no1", "met"),
    ("COCCOCc1ccc(-c2nc(-c3nc(N)nc(N(C)c4ccccc4)n3)no2)cn1", "not met"),
    ("CC(C)[S+]([O-])CC1CCN(c2nc(-c3nc(N)nc(N(C)c4ccccc4)n3)no2)CC1 (centres unmarked)", "not met"),
    ("COc1ccc(-c2nc(-c3nc(N)nc(N(C)c4cccc(C)c4)n3)no2)c(OC)c1", "not met"),
    ("CN(c1ccccc1)c1nc(N)nc(-c2noc(N3CCC(COc4ccccc4)CC3)n2)n1", "met"),
    ("CN(c1ccccc1)c1nc(N)nc(-c2noc(C(=O)N3CC(Oc4ccc(F)cc4)C3)n2)n1", "met"),
    ("CN(c1ccccc1)c1nc(N)nc(-c2noc(-c3ncc[nH]3)n2)n1", "not met"),
    ("COc1ccc(-c2nc(-c3nc(N)nc(N(C)c4ccccc4)n3)no2)nc1", "met"),
    ("CCOc1ccc(-c2nc(-c3nc(N)nc(N(C)c4ccccc4)n3)no2)cn1", "met"),
    ("Cc1cccc(N(C)c2nc(N)nc(-c3noc(-c4ccccc4Cl)n3)n2)c1", "met"),
]

====

# IC50 per entry
MEASURED_TARGET: Nav 1.7 (Homo sapiens, UniProt Q15858)
Construct: expressed in transfected cells
ASSAY_COMMENT: Whole-cell voltage clamp electrophysiology, manual patch clamp (marker b in Table of Examples)
Type: cell-based
CONDITIONS_USED: marker b: Manual patch clamp data; read-out: Nav 1.7 activity
ENDPOINT: IC50 (nM)

# COMPOUND, ENDPOINT, OBSERVED_RESULT
records = [
    ("CN(c1nc(N)nc(-c2noc(-c3ccco3)n2)n1)c1ccccc1F [Example 14]", "IC50", 198),
    ("COc1ccccc1-c1nc(-c2nc(N)nc(N(C)c3ccccc3)n2)no1 [Example 25]", "IC50", 47),
    ("CN(c1ccccc1)c1nc(N)nc(-c2noc(C(=O)NCc3ccccc3)n2)n1 [Example 71]", "IC50", 814),
    ("Nc1nc(Nc2ccccc2)nc(-c2noc(-c3nccs3)n2)n1 [Example 130]", "IC50", 44),
    ("CCN(c1ccccc1)c1nc(N)nc(-c2noc(-c3ccccc3OC)n2)n1 [Example 95]", "IC50", 46),
    ("CN(c1cccc(Cl)c1)c1nc(N)nc(-c2noc(-c3ccco3)n2)n1 [Example 7]", "IC50", 187),
    ("COC(=O)c1ccc(-c2nc(-c3nc(N)nc(N(C)c4ccccc4)n3)no2)s1 [Example 82]", "IC50", 195),
    ("COCCN(c1ccccc1)c1nc(N)nc(-c2noc(-c3ccc(OCC(F)(F)F)nc3)n2)n1 [Example 156]", "IC50", 65),
    ("CN(c1ccccc1)c1nc(N)nc(-c2noc(-c3cccs3)n2)n1 [Example 11]", "IC50", 216),
]

====

MEASURED_TARGET: Nav 1.7 (Homo sapiens)
Construct: expressed in transfected cells
ASSAY_COMMENT: Whole-cell voltage clamp electrophysiology, automated patch clamp (marker c in Table of Examples)
Type: cell-based
CONDITIONS_USED: marker c: Automated patch clamp data; read-out: Nav 1.7 activity
pIC50: −log10 of the molar value.
ENDPOINT: pIC50

# COMPOUND, OBSERVED_RESULT
data = [
    ("CN(c1nc(N)nc(-c2noc(-c3cccs3)n2)n1)c1ccccc1F [Example 90]", 6.38),
    ("CN(c1nc(N)nc(-c2noc(-c3ccc(OCC4CC4)nc3)n2)n1)c1ccccc1F [Example 134]", 7.17),
    ("CCN(c1ccccc1)c1nc(N)nc(-c2noc(-c3ccc(OC)cc3)n2)n1 [Example 190]", 6.97),
    ("Nc1nc(-c2noc(-c3ccco3)n2)nc(N(CC(F)(F)F)c2ccccc2)n1 [Example 68]", 6.65),
    ("CCOc1ccccc1-c1nc(-c2nc(N)nc(N(C)c3cccc(C)c3)n2)no1 [Example 183]", 7.17),
    ("CCN(c1ccccc1)c1nc(N)nc(-c2noc(-c3ccccc3Cl)n2)n1 [Example 192]", 6.91),
    ("CN(c1ccccc1)c1nc(N)nc(-c2noc(-c3ccccc3F)n2)n1 [Example 124]", 6.37),
    ("Nc1nc(Nc2cccc(F)c2)nc(-c2noc(-c3ccc(OCC4CC4)nc3)n2)n1 [Example 136]", 7.19),
    ("CN(c1ccccc1)c1nc(N)nc(-c2noc(-c3ccc(COC4CCOC4)nc3)n2)n1 (centres unmarked) [Example 144]", 5.76),
    ("COc1ccccc1-c1nc(-c2nc(N)nc(N(C)c3ccccc3F)n2)no1 [Example 89]", 6.70),
    ("Cc1ccccc1-c1nc(-c2nc(N)nc(N(C)c3ccccc3)n2)no1 [Example 27]", 6.03),
    ("Cc1cccc(N(C)c2nc(N)nc(-c3noc(-c4ccccc4OC(F)(F)F)n3)n2)c1 [Example 194]", 6.07),
    ("COc1ccccc1-c1nc(-c2nc(N)nc(N(C)c3cccc(Cl)c3)n2)no1 [Example 100]", 6.93),
    ("COc1cccc(-c2nc(-c3nc(N)nc(N(C)c4cccc(F)c4)n3)no2)c1 [Example 85]", 5.90),
    ("COc1cc(F)ccc1-c1nc(-c2nc(N)nc(N(C)c3cccc(C)c3)n2)no1 [Example 187]", 6.34),
    ("COc1ccc(-c2nc(-c3nc(N)nc(N(C)c4cccc(C)c4)n3)no2)cc1 [Example 184]", 7.21),
    ("COCCNc1nc(Nc2ccccc2)nc(-c2noc(-c3ccc(OCC(F)(F)F)nc3)n2)n1 [Example 157]", 6.32),
]
